Values compiled from ChEMBL document CHEMBL4480404.

# System: Staphylococcus aureus
# PROTOCOL: Antibacterial activity against Staphylococcus aureus Newman after 12 hrs
# Format: functional
# MEASUREMENT CONTEXT: read-out: ED50 (the source's name)
QUANTITY KIND: EC50

Query: Entry `CCCCCCCCOc1cccc(C(=O)Nc2ccc(F)cc2C(=O)O)c1` has what EC50?
Result: 3 to 8 µg/mL

Query: Which measured EC50 value corresponds to CC(C)CCCC(C)CCCc1cccc(NCC(P(=O)(O)O)P(=O)(O)O)n1 (stereo not drawn) ?
Result: 73 µM

Query: # query: EC50 of entry O=P([O-])(O)C(Cn1cc[n+](CCCc2ccc(F)c(F)c2)c1)P(=O)(O)O (stereo not drawn)
Result: 30 µg/mL

====

# PROTOCOL: Growth inhibition of HEK293 cells after 96 hrs by MTT assay
# Format: cell-based
# MEASUREMENT CONTEXT: human, read-out: ED50
QUANTITY KIND: GI50 at 96 h (µM)
I only need the number, in µM, no unit after it.

Query: Can you share its GI50 at 96 h? I mean this compound: CC(C)CCCC(C)CCOc1cc[n+](CC(P(=O)([O-])O)P(=O)(O)O)cc1 (stereo not drawn)
Result: 800

Query: Which GI50 at 96 h value belongs to CC(C)CCCC(C)CCOc1ccc[n+](CC(P(=O)([O-])O)P(=O)(O)O)c1 (stereo not drawn) ?
Result: 76
